// provenance: the supplement of paper PMC10567573

Items are presented alongside their recorded protein stability index.
B1: FAM189A2 (parent)
chain: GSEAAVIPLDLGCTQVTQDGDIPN

variants of: B1; assay: protein stability index of a GFP-peptide fusion (GPS, HEK-293T) (PSI 1-6); higher = more stable; conditions: c terminus: a fixed tail appended;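 further: lentivirally expressed fusions sorted by FACS into six bins by GFP to DsRed ratio, PSI derived from sequencing read proportions per bin multiplied by bin number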

Consider the following illustrative entries.
D10R ... 5.07
V6W ... 4.92
L9A ... 4.91

Determine its reported protein stability index: E3G 5.11

Determine its reported protein stability index: G20D 5.56

Determine its reported protein stability index: T14F 3.97

Determine its reported protein stability index: T17P 5.44
